- System: NCI-H2087 (Lung Adenocarcinoma)
- assay_summary: Bliss excess, mean over the matrix (fraction); higher = more synergy;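 further: after 72 h of two-drug dosing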
quantity_kind: Bliss excess
No unit in the answer, only the number.

The following molecules have reported results that may help.
Exam item: Fill in: Bliss excess of NC1(C(=O)N[C@@H](CCO)c2ccc(Cl)cc2)CCN(c2ncnc3[nH]ccc23)CC1 [Capivasertib] + CCN(CCO)CCCOc1ccc2c(Nc3cc(CC(=O)Nc4cccc(F)c4)[nH]n3)ncnc2c1 [AZD2811] (first compound max 10 µM, 7x7, partner max 1 µM) is ___
Marked response: -0.0243

Exam item: Can you look up the measured Bliss excess of CCN(CCO)CCCOc1ccc2c(Nc3cc(CC(=O)Nc4cccc(F)c4)[nH]n3)ncnc2c1 [AZD2811] + O=C(c1cc(Cc2n[nH]c(=O)c3ccccc23)ccc1F)N1CCN(C(=O)C2CC2)CC1 [Olaparib] (first compound max 1 µM, 7x7, partner max 10 µM) for me?
Marked response: 0.0128

Exam item: Quick one: Bliss excess for CCc1c2c(nc3ccc(O)cc13)-c1cc3c(c(=O)n1C2)COC(=O)[C@]3(O)CC [SN-38] + CN(C)CCCOc1ccc(-c2ccc3ncc4c(c3c2)n(C2CCOCC2)c(=O)n4C)cn1 [AZD0156] (first compound max 0.3 µM, 7x7, partner max 1 µM) ?
Marked response: 0.0485

Exam item: Can you look up the measured Bliss excess of CN(C)CCCOc1ccc(-c2ccc3ncc4c(c3c2)n(C2CCOCC2)c(=O)n4C)cn1 [AZD0156] + C=CCn1c(=O)c2cnc(Nc3ccc(N4CCN(C)CC4)cc3)nc2n1-c1cccc(C(C)(C)O)n1 [AZD1775] (first compound max 1 µM, partner max 1 µM) for me?
Marked response: -0.071

Exam item: Requested read-out: Bliss excess. Entry: CS(=O)(=O)CCNCc1ccc(-c2ccc3ncnc(Nc4ccc(OCc5cccc(F)c5)c(Cl)c4)c3c2)o1 [Lapatinib] + NC1(c2ccc(-c3nc4ccn5c(=O)[nH]nc5c4cc3-c3ccccc3)cc2)CCC1 [MK-2206] (first compound max 10 µM, 7x7, partner max 10 µM)
Marked response: -0.0221

Exam item: # Bliss excess lookup, item CN(CCO)CC[C@H](CSc1ccccc1)Nc1ccc(S(=O)(=O)NC(=O)c2ccc(N3CCC([C@@H](O)c4ccccc4-c4ccc(Cl)cc4)CC3)cc2)cc1S(=O)(=O)C(F)(F)F [AZD4320] + Nc1ccn([C@@H]2O[C@H](CO)[C@@H](O)C2(F)F)c(=O)n1 [Gemcitabine] (first compound max 1 µM, 7x7, partner max 0.3 µM)
Marked response: 0.0051

As a next step, examine the molecule that follows.
Exam item: What value of Bliss excess has been reported for the following molecule? COc1nnc2ccc(N3CCC(c4ccc(OCCN5CCN(C)C(=O)[C@H]5C)cc4)CC3)nn12 [AZD5153] + Cc1c2c(nn1C)CSCc1cc(n(C)n1)CSc1cc(c3ccccc3c1)OCCCc1c(C(=O)O)n(C)c3c-2c(Cl)ccc13 [AZD5991] (first compound max 1 µM, 7x7, partner max 1 µM)
Marked response: -0.0328

----------
Quick reference: Bliss excess of the listed items.
- System: 769-P (Kidney Carcinoma)
- assay_summary: Bliss excess, mean over the matrix (fraction); higher = more synergy
// keep it numeric: no unit symbol after the value

Exam item: Query (molecule): N#Cc1cnc(Nc2cc(NC[C@H]3CNCCO3)c(C(F)(F)F)cn2)cn1 [SRA737] + C=CCn1c(=O)c2cnc(Nc3ccc(N4CCN(C)CC4)cc3)nc2n1-c1cccc(C(C)(C)O)n1 [AZD1775] (first compound max 10 µM, partner max 1 µM) ; field requested: Bliss excess
Marked response: 0.0166

Exam item: # query: Bliss excess of entry Cc1c2c(nn1C)CSCc1cc(n(C)n1)CSc1cc(c3ccccc3c1)OCCCc1c(C(=O)O)n(C)c3c-2c(Cl)ccc13 [AZD5991] + CCN(CCO)CCCOc1ccc2c(Nc3cc(CC(=O)Nc4cccc(F)c4)[nH]n3)ncnc2c1 [AZD2811] (first compound max 1 µM, 7x7, partner max 1 µM)
Marked response: -0.0395

Exam item: Which Bliss excess value belongs to COc1cc2c(cc1OCCCCCOc1cc3c(cc1OC)C(=O)N1C=C(C)C[C@H]1C=N3)N=C[C@@H]1CC(C)=CN1C2=O [SG3199] + O=C(c1cc(Cc2n[nH]c(=O)c3ccccc23)ccc1F)N1CCN(C(=O)C2CC2)CC1 [Olaparib] (first compound max 0.001 µM, 7x7, partner max 10 µM) ?
Marked response: -0.0643

Exam item: Can you look up the measured Bliss excess of COc1nnc2ccc(N3CCC(c4ccc(OCCN5CCN(C)C(=O)[C@H]5C)cc4)CC3)nn12 [AZD5153] + CCN(CCO)CCCOc1ccc2c(Nc3cc(CC(=O)Nc4cccc(F)c4)[nH]n3)ncnc2c1 [AZD2811] (first compound max 1 µM, 7x7, partner max 1 µM) for me?
Marked response: -0.0217
